I'd be grateful if you could share measured IC50 for these entries.
Test system: Trypanosoma cruzi
Assay summary: Trypanocidal activity against Trypanosoma cruzi Y bloodstream trypomastigotes in presence of 10% mouse blood assessed as induction of parasite lysis incubated for 24 hrs by Neubauer chamber based cell counting method
Type: functional, organism-based
Write the value in µM as a bare number.

Reported IC50, compound CC1(C)OC2=C(C(=O)C(=O)c3ccccc32)C1Sc1ccc(Cl)cc1 (configuration not stated) : ____
9.2

Reported IC50, compound CC1(C)OC2=C(C(=O)C(=O)c3ccccc32)C1Sc1c(F)c(F)c(F)c(F)c1F (configuration not stated) : ____
183

Reported IC50, compound Cc1cccc(SC2C3=C(OC2(C)C)c2ccccc2C(=O)C3=O)c1 (configuration not stated) : ____
83.6

Reported IC50, compound CC1(C)OC2=C(C(=O)C(=O)c3ccccc32)C1Sc1ccc(F)cc1 (configuration not stated) : ____
165

Reported IC50, compound CC1(C)OC2=C(C(=O)C(=O)c3ccccc32)C1Sc1ccccc1 (configuration not stated) : ____
32.3

Reported IC50, compound COc1ccc(SC2C3=C(OC2(C)C)c2ccccc2C(=O)C3=O)cc1 (configuration not stated) : ____
158

Reported IC50, compound Cc1ccc(SC2C3=C(OC2(C)C)c2ccccc2C(=O)C3=O)cc1 (configuration not stated) : ____
59.5
